Test: Chemical stability
Format: physicochemical
Details: Table II
PROPERTY NAME: Stability

COMPOUND: CNC(=O)ON=C(C)SCCC#N [drawing 23 R=H, reference compound]
Stability: stable
//
COMPOUND: CNC(=O)ON=CC(C)(C)C#N [drawing 22 R=H, X=CN, reference compound]
Stability: unstable
//
COMPOUND: CNC(=O)ON=CC(C)(C)[N+](=O)[O-] [drawing 22 R=H, X=NO2, reference compound]
Stability: unstable
//
COMPOUND: CC(=NOC(=O)N(C)SC(Cl)(Cl)Cl)SCCC#N
Stability: stable
//
COMPOUND: CN(SC(Cl)(Cl)Cl)C(=O)ON=CC(C)(C)[N+](=O)[O-]
Stability: stable

Q: Consider the compound CN(SC(Cl)(Cl)Cl)C(=O)ON=CC(C)(C)C#N and give its measured Stability.
Result: stable

Q: GET /values?readout=Stability&item= CN(SC(F)(F)F)C(=O)ON=CC(C)(C)C#N [drawing 22 R=SCF3, X=CN]
Result: stable
